Consider the following molecules; for each one, report its Activity.
# System: Rattus norvegicus
# ASSAY SUMMARY: Anti-inflammatory activity in Rattus norvegicus albino (rat) assessed as reduction in carrageenan-induced paw volume at 5 mg/kg, sc pretreated 2 hr before carrageenan challenge measured after 1 hr by plethysmometer (reference value: 1.95 +/- 0.03 to 2 ml)
# Format: functional
# CONDITION INFO: route subcutaneous
Just the number in mL, nothing appended.

**Query** Please look at this molecule and report its Activity: O=c1ccc(-c2nc3ccccc3nc2-c2ccccc2)n[nH]1
**Result** 1.37

**Query** Please look at this molecule and report its Activity: O=C(O)Cc1ccccc1Nc1c(Cl)cccc1Cl
**Result** 0.57

**Query** Please look at this molecule and report its Activity: COc1ccc(C2Nc3ccccc3NC2c2ccc(=O)[nH]n2)cc1 (configuration not stated)
**Result** 1.42

**Query** Please look at this molecule and report its Activity: COc1ccc(-c2nc3ccccc3nc2-c2ccc(=O)[nH]n2)cc1
**Result** 1.5

**Query** Please look at this molecule and report its Activity: O=c1ccc(C2Nc3ccccc3NC2c2ccc(Cl)cc2)n[nH]1 (configuration not stated)
**Result** 1.93

**Query** Please look at this molecule and report its Activity: O=c1ccc(C2Nc3ccccc3NC2c2ccccc2)n[nH]1 (configuration not stated)
**Result** 2.02

**Query** Please look at this molecule and report its Activity: O=c1ccc(-c2nc3ccccc3nc2-c2ccc(Cl)cc2)n[nH]1
**Result** 0.95
